TEST TARGET: preconditioned BTN2A1–BTN3A1 B30.2 complex (Homo sapiens, UniProt O00481+Q7KYR7)
Construct: The BTN3A1 B30.2 domain was expressed and purified as described previously; 6xHis; made in house; host or cells: Escherichia coli BL21 (DE3) for BTN2A1 B30.2
Sequence (O00481 322-513 limits assumed): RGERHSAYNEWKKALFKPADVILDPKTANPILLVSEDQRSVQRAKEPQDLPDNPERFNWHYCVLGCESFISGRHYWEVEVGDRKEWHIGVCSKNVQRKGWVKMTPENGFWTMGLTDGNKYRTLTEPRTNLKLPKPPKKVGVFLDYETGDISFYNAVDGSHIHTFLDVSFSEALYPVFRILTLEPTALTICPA
Sequence (Q7KYR7 316-527 limits assumed): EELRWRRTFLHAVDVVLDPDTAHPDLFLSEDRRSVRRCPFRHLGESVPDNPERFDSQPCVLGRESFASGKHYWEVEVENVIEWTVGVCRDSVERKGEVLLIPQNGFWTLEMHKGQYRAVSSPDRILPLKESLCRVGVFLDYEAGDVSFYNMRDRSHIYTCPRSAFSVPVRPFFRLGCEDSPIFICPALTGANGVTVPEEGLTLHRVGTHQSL
METHOD NOTES: ITC: pAg binding to the preconditioned BTN2A1 B30.2 and BTN3A1 B30.2 complex
QUANTITY MEASURED: Kd
Answers without a unit are incomplete; give the number and then its unit.

Could you tell me which Kd is on file for C=C(C)CCO[P@@](=O)(O)OP(=O)(O)O [Compound 3, 3-methylbut-3-en-1-yl diphosphate] ?
625 µM

====

Tested on: BTN2A−/− MIA PaCa-2 (BTN2A1/BTN2A2 KO) cells
METHOD NOTES: Cell killing assay with BTN2A−/− MIA PaCa-2 (BTN2A1/BTN2A2 KO) cells expressing BTN2A1/BTN2A2 variants
APPLIED CONDITIONS: Homo sapiens, MIA PaCa-2, read-out: EC50 (μM) of Vγ9Vδ2 T cells towards BTN2A−/− MIA PaCa-2 in the presence of HMBPP, transfected 2A1 variant V511A
QUANTITY MEASURED: EC50 (µM)
The figure you give is taken to be in µM; do not add the unit.

I am curious: what EC50 value has been reported for C/C(=C\COP(=O)(O)OP(=O)(O)O)CO ?
130

====

TEST TARGET: preconditioned BTN2A1–BTN3A1 B30.2 complex (Homo sapiens, UniProt O00481+Q7KYR7)
Construct: The BTN3A1 B30.2 domain was expressed and purified as described previously; 6xHis; made in house; host or cells: Escherichia coli BL21 (DE3) for BTN2A1 B30.2
METHOD NOTES: ITC: pAg binding to the preconditioned BTN2A1 B30.2 and BTN3A1 B30.2 complex
APPLIED CONDITIONS: ITC; read-out: KD, pAg binding to the preconditioned BTN2A1–BTN3A1 B30.2 complex
QUANTITY MEASURED: pKd
In plain terms, pKd is the concentration in mol/L turned into minus its base-10 logarithm.

Value lookup for pKd; key = CC(C)=CCOP(=O)(O)OP(=O)(O)O [Compound 2, 3-methylbut-2-en-1-yl diphosphate]
4.46

====

System: MIA PaCa-2 cells
METHOD NOTES: Cell killing assay: cytotoxicity of Vγ9Vδ2 T cells towards pAg- or zoledronate-treated MIA PaCa-2 cells (luciferase)
Type: cell-based, human
APPLIED CONDITIONS: Homo sapiens, MIA PaCa-2, Fig. 1b; 2A1 WT cells; three-parameter fit; read-out: EC50
QUANTITY MEASURED: pEC50
pEC50 is a log-scale quantity: -log10 of the concentration expressed in molar.

// map C/C(=C\COP(=O)(O)OP(=O)(O)O)CO to recorded pEC50 (system: MIA PaCa-2 cells)
8.19

====

System: BTN2A−/− MIA PaCa-2 (BTN2A1/BTN2A2 KO) cells
METHOD NOTES: Cell killing assay with BTN2A−/− MIA PaCa-2 (BTN2A1/BTN2A2 KO) cells expressing BTN2A1/BTN2A2 variants
APPLIED CONDITIONS: Homo sapiens, MIA PaCa-2, read-out: EC50 (nM), MIA PaCa-2 cell lysis by Vγ9Vδ2 T cells exposed to HMBPP, active chimera bearing G352Y354QR/ M506T/W374R
QUANTITY MEASURED: EC50 (nM)
Give the number; nM is assumed, so skip it.

I'd like to know its EC50. The compound in question is C/C(=C\COP(=O)(O)OP(=O)(O)O)CO
176

====

Test system: BTN2A−/− MIA PaCa-2 (BTN2A1/BTN2A2 KO) cells
METHOD NOTES: Cell killing assay with BTN2A−/− MIA PaCa-2 (BTN2A1/BTN2A2 KO) cells expressing BTN2A1/BTN2A2 variants
APPLIED CONDITIONS: Homo sapiens, MIA PaCa-2, read-out: EC50, MIA PaCa-2 lysis, BTN2A−/− MIA PaCa-2 stably expressing BTN2A1 WT
QUANTITY MEASURED: pEC50
Please note pEC50 is a logarithmic value: minus log10 of concentration in mol/L. Answer with that number alone.

Quick check: pEC50 of C/C(=C\COP(=O)(O)OP(=O)(O)O)CO ?
7.89

====

TEST TARGET: BTN3A3(R351H) B30.2 (Homo sapiens)
Construct: the B30.2 domain of this active mutant (BTN3A3(R351H))
Sequence (O00478 322-518 R381H): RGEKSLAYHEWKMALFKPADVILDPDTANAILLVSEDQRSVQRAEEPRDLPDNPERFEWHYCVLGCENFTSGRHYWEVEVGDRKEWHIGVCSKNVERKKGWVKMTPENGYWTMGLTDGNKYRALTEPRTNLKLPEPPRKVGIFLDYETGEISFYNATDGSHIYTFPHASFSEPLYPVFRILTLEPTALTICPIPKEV
METHOD NOTES: ITC: HMBPP binding to BTN3A3(R351H) B30.2
QUANTITY MEASURED: pKd
Conceptually, pKd converts a concentration in mol/L into minus its log10.

I am curious: what pKd value has been reported for C/C(=C\COP(=O)(O)OP(=O)(O)O)CO [Compound 1] ?
4.96

====

TEST TARGET: BTN3A1 B30.2 domain (Homo sapiens, UniProt O00481)
Sequence (O00481 322-513 limits assumed): as the sequence (O00481 322-513 limits assumed) above
pKd values, listed per item
Units for pKd: none; it is -log10 of a concentration expressed in mol/L.

pKd of C=C(C)CCO[P@@](=O)(O)OP(=O)(O)O [Compound 3, 3-methylbut-3-en-1-yl diphosphate] on BTN3A1 B30.2 domain (Homo sapiens, UniProt O00481)?
3.18

New cases:
What pKd appears in the records for this molecule with BTN3A1 B30.2 domain (Homo sapiens, UniProt O00481)? CC(C)=CCOP(=O)(O)OP(=O)(O)O [Compound 2, 3-methylbut-2-en-1-yl diphosphate]
3.92

====

Kd values for the molecules below.
TEST TARGET: preconditioned BTN2A1–BTN3A1 B30.2 complex (Homo sapiens, UniProt O00481+Q7KYR7)
Construct: The BTN3A1 B30.2 domain was expressed and purified as described previously; 6xHis; made in house; host or cells: Escherichia coli BL21 (DE3) for BTN2A1 B30.2
METHOD NOTES: ITC: pAg binding to the preconditioned BTN2A1 B30.2 and BTN3A1 B30.2 complex
APPLIED CONDITIONS: ITC; Supplementary Table 4; read-out: KD (M) for phosphoantigen binding to the pre-conditioned 2A1 B30.2 and 3A1 B30.2
# value in M; strip the unit string

Examples from the recorded data:
Consider the molecule CC/C(=C\COP(=O)(O)OP(=O)(O)O)CO [Compound 4] and give its measured Kd.
3.26e-07

Find the recorded Kd belonging to C/C(=C\COP(=O)(O)C(F)(F)P(=O)(O)O)CO [Compound 10] and report it.
1.15e-05

Further cases:
So what does the record say about Kd for C/C(=C\COP(=O)(O)C(F)P(=O)(O)O)CO (centres unmarked) [Compound 11] ?
2.81e-05

Consider the molecule shown here: C/C(=C\COP(=O)(O)C(Cl)P(=O)(O)O)CO (centres unmarked) [Compound 9] What is its recorded Kd?
4.97e-05

====

TEST TARGET: VpBTN3 BFI (Vicugna pacos)
Sequence (A0A345DF50 entry or part of it): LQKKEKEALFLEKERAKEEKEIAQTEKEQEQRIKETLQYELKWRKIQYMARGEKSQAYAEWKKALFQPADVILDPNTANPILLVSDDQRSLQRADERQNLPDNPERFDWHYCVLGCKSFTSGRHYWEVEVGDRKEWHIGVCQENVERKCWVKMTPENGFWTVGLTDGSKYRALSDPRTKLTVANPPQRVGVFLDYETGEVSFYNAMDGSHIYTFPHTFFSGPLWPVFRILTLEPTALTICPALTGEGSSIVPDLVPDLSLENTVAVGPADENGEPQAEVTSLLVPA
METHOD NOTES: ITC: pAg binding to VpBTN3 BFI
Parameters: species or system alpaca (Vicugna pacos)
APPLIED CONDITIONS: ITC; read-out: KD, pAg binding to VpBTN3 intracellular domain (BFI)
QUANTITY MEASURED: pKd
Note on units: pKd is unitless, being -log10 of a concentration expressed in mol/L.

Reported pKd, compound C/C(=C\COP(=O)(O)OP(=O)(O)O)CO [Compound 1] : ____
5.86

====

System: BTN2A−/− MIA PaCa-2 (BTN2A1/BTN2A2 KO) cells
METHOD NOTES: Cell killing assay with BTN2A−/− MIA PaCa-2 (BTN2A1/BTN2A2 KO) cells expressing BTN2A1/BTN2A2 variants
APPLIED CONDITIONS: Homo sapiens, MIA PaCa-2, read-out: EC50 (μM) of Vγ9Vδ2 T cells towards BTN2A−/− MIA PaCa-2 in the presence of HMBPP, transfected 2A1 WT
QUANTITY MEASURED: EC50 (µM)
Answer format: numeric, µM implied, no suffix.

Provide value of EC50 for this record tested with BTN2A−/− MIA PaCa-2 (BTN2A1/BTN2A2 KO) cells: C/C(=C\COP(=O)(O)OP(=O)(O)O)CO
0.8

====

TEST TARGET: preconditioned BTN2A1–BTN3A1 B30.2 complex (Homo sapiens, UniProt O00481+Q7KYR7)
Construct: The BTN3A1 B30.2 domain was expressed and purified as described previously; 6xHis; made in house; host or cells: Escherichia coli BL21 (DE3) for BTN2A1 B30.2
METHOD NOTES: ITC: pAg binding to the preconditioned BTN2A1 B30.2 and BTN3A1 B30.2 complex
APPLIED CONDITIONS: ITC; Supplementary Table 4; read-out: KD (M) for phosphoantigen binding to the pre-conditioned 2A1 B30.2 and 3A1 B30.2
QUANTITY MEASURED: Kd (M)
Numbers only; they are read as M.

Please review the entries below; each comes with its answer.
What does the record list as Kd for C/C(=C\COP(=O)(O)OP(=O)(O)O)C(C)O (stereo not shown) ?
1.69e-05

Fill in the blank: the reported Kd of C/C(=C\COP(=O)(O)C(Cl)(Cl)P(=O)(O)O)CO is ____.
1.25e-05

What value of measured Kd is listed for C=CC/C(=C\COP(=O)(O)OP(=O)(O)O)CO ?
2.06e-07

Lab note: next compound to report on.
Reported Kd for C/C(=C\COP(=O)(O)CP(=O)(O)O)CO : what is it?
4.62e-05

Reference for the values: paper PMC10533412
